tested on: OVCAR-3; assay: OVCAR3 CTG assay; type: cell-based; settings: Homo sapiens, OVCAR-3, 144 h; CellTiter-Glo, 6 days incubation
pIC50: −log10 of the molar value.
Some compounds, each annotated with its measured pIC50.
Measured endpoint: pIC50

compound_smiles=CN1CCCOCC2(C(F)(F)F)CCN(CC2)c2cc(NS(=O)(=O)CCO)ccc2C(=O)Nc2cc(Cl)nc1n2 measured_endpoint=pIC50 assay_value="6.00 to 7.00"
compound_smiles=CN1CCCOCC2(C(F)(F)F)CCN(CC2)c2cc(NS(=O)(=O)CCO)ccc2C(=O)Nc2cccc1n2 measured_endpoint=pIC50 assay_value="7.00 to 8.00"
compound_smiles=CN1CCC2(C(F)(F)F)CCN(CC2)c2cc(NS(=O)(=O)CCO)ccc2C(=O)Nc2cccc(n2)NCC1=O measured_endpoint=pIC50 assay_value="5.00 to 6.00"
compound_smiles=Cc1cc2nc(n1)N(C)CCOCCC1(C)CCN(CC1)c1cc(NS(=O)(=O)CCO)ccc1C(=O)N2 measured_endpoint=pIC50 assay_value="6.00 to 7.00"

====

Some compounds, each annotated with its measured IC50.
system: OVCAR-3; assay: OVCAR3 CTG assay; format: cell-based; conditions: Homo sapiens, OVCAR-3, 144 h; CellTiter-Glo, 6 days incubation
Measured endpoint: IC50

compound="Cc1cc2nc(n1)N1CCOC(COCC3(C(F)(F)F)CCN(CC3)c3cc(NS(=O)(=O)CCO)c(F)cc3C(=O)N2)C1 (stereo not drawn)" experimental_system=OVCAR-3 assay_value="< 10 nM"
compound=CO[C@@H]1CNc2cccc(n2)NC(=O)c2ccc(NS(=O)(=O)CCO)cc2N2CCC(C(F)(F)F)(CC2)COC1 experimental_system=OVCAR-3 assay_value="10 to 100 nM"
compound=Cc1cc2nc(n1)NCCOCCC1(C)CCN(CC1)c1cc(NS(=O)(=O)CCO)ccc1C(=O)N2 experimental_system=OVCAR-3 assay_value="10 to 100 nM"
compound=C[C@H]1CCCC2(C(F)F)CCN(CC2)c2cc(NS(=O)(=O)CCO)ccc2C(=O)Nc2cccc(n2)NC1 experimental_system=OVCAR-3 assay_value="< 10 nM"
compound=CC12CCN(CC1)c1cc(NS(=O)(=O)CCO)ccc1C(=O)Nc1cccc(n1)OCCCOC2 experimental_system=OVCAR-3 assay_value="10 to 100 nM"
compound=Cc1cc2nc(n1)NCCCOCC1(C)CCN(CC1)c1nc(NC(C)(C)CO)ccc1C(=O)N2 experimental_system=OVCAR-3 assay_value="100 to 1000 nM"
compound=CCS(=O)(=O)Nc1cc2c(cn1)C(=O)Nc1cccc(n1)NC[C@H](C)CCCC1(C(F)(F)F)CCN2CC1 experimental_system=OVCAR-3 assay_value="10 to 100 nM"
compound=CO[C@H]1CNc2nc(C)cc(n2)NC(=O)c2ccc(NS(=O)(=O)CCO)cc2N2CCC(C(F)(F)F)(CC2)COC1 experimental_system=OVCAR-3 assay_value="10 to 100 nM"
compound=CN1CCCOCC2(C(F)(F)F)CCN(CC2)c2cc(NS(=O)(=O)CCO)cnc2C(=O)Nc2cccc1n2 experimental_system=OVCAR-3 assay_value="10 to 100 nM"
compound=O=C1Nc2cccc(n2)NCC2(CC2)COCC2(C(F)(F)F)CCN(CC2)c2cc(NS(=O)(=O)CCO)ccc21 experimental_system=OVCAR-3 assay_value="10 to 100 nM"
compound=[2H]C([2H])([2H])N1CCCOCC2(C(F)(F)F)CCN(CC2)c2cc(NS(=O)(=O)CCO)ccc2C(=O)Nc2cccc1n2 experimental_system=OVCAR-3 assay_value="10 to 100 nM"
compound="CC1CNc2cccc(n2)NC(=O)c2ccc(NS(=O)(=O)CCO)cc2N2CCC(C(F)(F)F)(CC2)COC1 (stereo not drawn)" experimental_system=OVCAR-3 assay_value="10 to 100 nM"
compound=CN1CCCOCC2(C)CCN(CC2)c2cc(NS(=O)(=O)CCO)ccc2C(=O)Nc2cccc(n2)C1=O experimental_system=OVCAR-3 assay_value="100 to 1000 nM"
compound=C[C@H]1CNc2cccc(n2)NC(=O)c2ccc(NS(=O)(=O)CCO)cc2N2CCC(C(F)(F)F)(CC2)COC1 experimental_system=OVCAR-3 assay_value="10 to 100 nM"
compound=C[C@H]1C/C=C/C2(C(F)(F)F)CCN(CC2)c2cc(NS(=O)(=O)CCO)ccc2C(=O)Nc2cccc(n2)NC1 experimental_system=OVCAR-3 assay_value="< 10 nM"
compound=C[C@@H]1CCCC2(C(F)(F)F)CCN(CC2)c2cc(NS(=O)(=O)CCO)ncc2C(=O)Nc2cccc(n2)NC1 experimental_system=OVCAR-3 assay_value="10 to 100 nM"
compound=Cc1cc2nc(n1)NCC(F)(F)COCC1(C)CCN(CC1)c1cc(NS(=O)(=O)CCO)ccc1C(=O)N2 experimental_system=OVCAR-3 assay_value="10 to 100 nM"
compound=CC12CCN(CC1)c1cc(NS(C)(=O)=O)ccc1C(=O)Nc1cccc(n1)OCCCOC2 experimental_system=OVCAR-3 assay_value="100 to 1000 nM"
compound=Cc1cc2nc(n1)N(C)CCCOCC1(C(F)(F)F)CCN(CC1)c1cc(NS(=O)(=O)CCO)ccc1C(=O)N2 experimental_system=OVCAR-3 assay_value="100 to 1000 nM"
compound=O=C1Nc2cccc(n2)NCC(F)(F)COCC2(C(F)(F)F)CCN(CC2)c2cc(NS(=O)(=O)CCO)ccc21 experimental_system=OVCAR-3 assay_value="10 to 100 nM"
compound=C[C@@H]1COCC2(C(F)(F)F)CCN(CC2)c2cc(NS(=O)(=O)CCO)ccc2C(=O)Nc2cccc(n2)CO1 experimental_system=OVCAR-3 assay_value="10 to 100 nM"
compound=Cc1cc2nc(n1)N1CCO[C@H](COCC3(C(F)F)CCN(CC3)c3cc(NS(=O)(=O)CCO)ccc3C(=O)N2)C1 experimental_system=OVCAR-3 assay_value="< 10 nM"
compound=Cc1cc2nc(n1)N1CCC(F)(F)[C@H](CCCC3(C)CCN(CC3)c3cc(NS(=O)(=O)CCO)ccc3C(=O)N2)C1 experimental_system=OVCAR-3 assay_value="100 to 1000 nM"
compound=Cc1cc2nc(n1)NC[C@@H](C)COCC1(C(F)(F)F)CCN(CC1)c1cc(NS(=O)(=O)CCO)ccc1C(=O)N2 experimental_system=OVCAR-3 assay_value="< 10 nM"
